All figures here come from patent US9371365B2.

# system: C3b (Homo sapiens, UniProt P01024)
# Construct: biotin (chemical biotinylation of C3b)
# Sequence (P01024 23-667 limits assumed): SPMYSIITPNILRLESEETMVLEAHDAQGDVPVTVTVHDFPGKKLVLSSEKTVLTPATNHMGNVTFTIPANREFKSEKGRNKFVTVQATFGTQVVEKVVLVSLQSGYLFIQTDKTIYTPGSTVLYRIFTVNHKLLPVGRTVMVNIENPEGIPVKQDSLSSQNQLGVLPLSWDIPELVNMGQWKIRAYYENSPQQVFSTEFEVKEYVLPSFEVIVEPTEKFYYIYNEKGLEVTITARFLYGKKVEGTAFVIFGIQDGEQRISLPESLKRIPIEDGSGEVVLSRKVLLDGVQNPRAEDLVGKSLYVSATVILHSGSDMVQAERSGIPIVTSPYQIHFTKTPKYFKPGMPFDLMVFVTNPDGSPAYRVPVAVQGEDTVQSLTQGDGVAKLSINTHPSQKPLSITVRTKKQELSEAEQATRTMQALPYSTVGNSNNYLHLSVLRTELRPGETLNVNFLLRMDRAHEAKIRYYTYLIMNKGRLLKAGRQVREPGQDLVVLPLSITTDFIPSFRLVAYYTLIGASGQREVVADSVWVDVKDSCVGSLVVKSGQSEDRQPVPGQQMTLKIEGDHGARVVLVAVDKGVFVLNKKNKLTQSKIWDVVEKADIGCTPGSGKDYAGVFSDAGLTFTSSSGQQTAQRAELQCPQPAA
# Sequence (P01024 749-1663 limits assumed): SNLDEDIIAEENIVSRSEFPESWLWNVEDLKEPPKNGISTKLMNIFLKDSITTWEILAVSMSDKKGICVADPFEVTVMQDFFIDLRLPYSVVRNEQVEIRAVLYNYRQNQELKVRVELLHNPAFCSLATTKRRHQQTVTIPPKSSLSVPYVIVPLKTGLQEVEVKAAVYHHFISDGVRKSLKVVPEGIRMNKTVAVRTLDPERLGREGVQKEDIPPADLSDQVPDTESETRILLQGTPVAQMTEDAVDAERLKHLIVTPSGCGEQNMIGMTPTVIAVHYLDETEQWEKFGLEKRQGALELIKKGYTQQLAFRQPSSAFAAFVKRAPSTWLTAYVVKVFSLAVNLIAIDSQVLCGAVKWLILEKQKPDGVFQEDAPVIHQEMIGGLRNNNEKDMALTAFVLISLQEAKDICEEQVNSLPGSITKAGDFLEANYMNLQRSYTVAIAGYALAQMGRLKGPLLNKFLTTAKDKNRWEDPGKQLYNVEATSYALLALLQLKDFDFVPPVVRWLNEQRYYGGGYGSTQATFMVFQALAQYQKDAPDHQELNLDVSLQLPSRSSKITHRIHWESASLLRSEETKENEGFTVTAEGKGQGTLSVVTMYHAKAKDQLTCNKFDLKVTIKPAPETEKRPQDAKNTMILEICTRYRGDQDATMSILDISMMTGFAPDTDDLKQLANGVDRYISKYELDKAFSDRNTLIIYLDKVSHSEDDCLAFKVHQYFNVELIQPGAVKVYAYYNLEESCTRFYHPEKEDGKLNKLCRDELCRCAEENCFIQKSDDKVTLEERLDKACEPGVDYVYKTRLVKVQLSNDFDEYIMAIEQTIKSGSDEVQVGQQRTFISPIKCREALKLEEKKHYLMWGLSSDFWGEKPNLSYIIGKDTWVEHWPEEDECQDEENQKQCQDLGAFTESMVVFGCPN
# measurement description: SPR analysis of binding kinetics to immobilized C3b
# experimental conditions: relative to peptide 14

molecule	rkd
CC[C@H](C)[C@H](NC(=O)[C@@H]1CSSC[C@H](NC(=O)[C@@H](NC(C)=O)[C@@H](C)CC)C(=O)N[C@@H](C(C)C)C(=O)N[C@@H](Cc2cn(C)c3ccccc23)C(=O)N[C@@H](CCC(N)=O)C(=O)N[C@@H](CC(=O)O)C(=O)N[C@@H](Cc2c[nH]c3ccccc23)C(=O)NCC(=O)N[C@@H](C)C(=O)N[C@@H](Cc2c[nH]cn2)C(=O)N[C@@H](CCCNC(=N)N)C(=O)N1)C(N)=O [Peptide 16]	1.0

----------
Here the recorded rKD SPR is given for each entry.
# system: C3b (Homo sapiens, UniProt P01024)
# Construct: biotin (chemical biotinylation of C3b)
# measurement description: SPR analysis of binding kinetics to immobilized C3b
# experimental conditions: relative to peptide 14
Bridge positions count the residues as written; N and C are the ends. Square brackets hold non-standard residues; d marks the D form. Peptide text beside a SMILES is read from it. Trp(1-Me) = Cn1cc(C[C@H](N)C(=O)O)c2ccccc21; Nle = CCCC[C@H](N)C(=O)O; Sar = CNCC(=O)O
observed property: rKD SPR

molecule	observed property	reported value
CC[C@H](C)[C@H](NC(=O)[C@@H]1CSSC[C@H](NC(=O)[C@@H](NC(C)=O)[C@@H](C)CC)C(=O)N[C@@H](C(C)C)C(=O)N[C@@H](Cc2cn(C)c3ccccc23)C(=O)N[C@@H](CCC(N)=O)C(=O)N[C@@H](CC(=O)O)C(=O)N[C@@H](Cc2c[nH]c3ccccc23)C(=O)NCC(=O)N[C@@H](C)C(=O)N[C@@H](Cc2c[nH]cn2)C(=O)N[C@@H](CCCNC(=N)N)C(=O)N1)C(N)=O [Peptide 16]	rKD SPR	1.1
CC[C@H](C)[C@H](NC(=O)[C@@H]1CSSC[C@H](NC(=O)[C@@H](NC(C)=O)[C@@H](C)CC)C(=O)N[C@@H](C(C)C)C(=O)N[C@@H](Cc2cn(C)c3ccccc23)C(=O)N[C@@H](CCC(N)=O)C(=O)N[C@@H](CC(=O)O)C(=O)N[C@@H](Cc2c[nH]c3ccccc23)C(=O)N(C)CC(=O)N[C@@H](C)C(=O)N[C@@H](Cc2c[nH]cn2)C(=O)N[C@@H](CCCNC(=N)N)C(=O)N1)C(N)=O [Peptide 17, Ac−Ic[CV(^1−MeW)QDW(^N−MeG)AHRC]I-NH2]	rKD SPR	2.7
CCCC[C@H](NC(=O)[C@@H]1CSSC[C@H](NC(=O)[C@@H](NC(C)=O)[C@@H](C)CC)C(=O)N[C@@H](C(C)C)C(=O)N[C@@H](Cc2cn(C)c3ccccc23)C(=O)N[C@@H](CCC(N)=O)C(=O)N[C@@H](CC(=O)O)C(=O)N[C@@H](Cc2c[nH]c3ccccc23)C(=O)N(C)CC(=O)N[C@@H](C)C(=O)N[C@@H](Cc2c[nH]cn2)C(=O)N[C@@H](CCCNC(=N)N)C(=O)N1)C(N)=O [Peptide 19] (Ac-ICV[Trp(1-Me)]QDW[Sar]AHRC[Nle]-NH2; disulfide 2-12)	rKD SPR	2.7

----------
We begin with a simple list: items and their reported rka.
# system: C3b (Homo sapiens, UniProt P01024)
# Construct: biotin (chemical biotinylation of C3b)
# measurement description: SPR analysis of binding kinetics to immobilized C3b
# experimental conditions: relative to peptide 14
Bridge positions count the residues as written; N and C are the ends. Square brackets hold non-standard residues; d marks the D form. Peptide text beside a SMILES is read from it. Trp(1-Me) = Cn1cc(C[C@H](N)C(=O)O)c2ccccc21; Nle = CCCC[C@H](N)C(=O)O; Sar = CNCC(=O)O

compound	rka
CCCC[C@H](NC(=O)[C@@H]1CSSC[C@H](NC(=O)[C@@H](NC(C)=O)[C@@H](C)CC)C(=O)N[C@@H](C(C)C)C(=O)N[C@@H](Cc2cn(C)c3ccccc23)C(=O)N[C@@H](CCC(N)=O)C(=O)N[C@@H](CC(=O)O)C(=O)N[C@@H](Cc2c[nH]c3ccccc23)C(=O)N(C)CC(=O)N[C@@H](C)C(=O)N[C@@H](Cc2c[nH]cn2)C(=O)N[C@@H](CCCNC(=N)N)C(=O)N1)C(N)=O [Peptide 19] (Ac-ICV[Trp(1-Me)]QDW[Sar]AHRC[Nle]-NH2; disulfide 2-12)	1.5
CC[C@H](C)[C@H](NC(C)=O)C(=O)N[C@H]1CSSC[C@@H](C(=O)N[C@@H](CC(C)C)C(N)=O)NC(=O)[C@H](CCCNC(=N)N)NC(=O)[C@H](Cc2c[nH]cn2)NC(=O)[C@H](C)NC(=O)CN(C)C(=O)[C@H](Cc2c[nH]c3ccccc23)NC(=O)[C@H](CC(=O)O)NC(=O)[C@H](CCC(N)=O)NC(=O)[C@H](Cc2cn(C)c3ccccc23)NC(=O)[C@H](C(C)C)NC1=O [Peptide 18, Ac−Ic[CV(^1−MeW)QDW(^N−MeG)AHRC]L-NH2] (Ac-ICV[Trp(1-Me)]QDW[Sar]AHRCL-NH2; disulfide 2-12)	1.3
CC[C@H](C)[C@H](NC(=O)[C@@H]1CSSC[C@H](NC(=O)[C@@H](NC(C)=O)[C@@H](C)CC)C(=O)N[C@@H](C(C)C)C(=O)N[C@@H](Cc2cn(C)c3ccccc23)C(=O)N[C@@H](CCC(N)=O)C(=O)N[C@@H](CC(=O)O)C(=O)N[C@@H](Cc2c[nH]c3ccccc23)C(=O)NCC(=O)N[C@@H](C)C(=O)N[C@@H](Cc2c[nH]cn2)C(=O)N[C@@H](CCCNC(=N)N)C(=O)N1)C(N)=O [Peptide 16]	1.0

----------
# Tested on: classical pathway of complement
# measurement description: Inhibition of classical pathway complement activation, ELISA in human serum
# Type: biochemical
# experimental conditions: relative potency compared to peptide 14
# Method: The ability of the compstatin analogs to inhibit the activation of the classical pathway of complement was assessed by ELISA (Mallik et al., 2005, J Med Chem 48:274-86). In brief, complement was activated in human serum using an antigen-antibody complex in the presence or absence of compstatin analogs, and the deposition of C3 fragments on the plate surface was detected using an HRP-conjugated polyclonal anti-C3 antibody. […]
Bridge positions count the residues as written; N and C are the ends. Square brackets hold non-standard residues; d marks the D form. Peptide text beside a SMILES is read from it. Trp(1-Me) = Cn1cc(C[C@H](N)C(=O)O)c2ccccc21; Nle = CCCC[C@H](N)C(=O)O; Sar = CNCC(=O)O
observed property: rP

molecule	reported value
CC[C@H](C)[C@H](NC(=O)[C@@H]1CSSC[C@H](NC(=O)[C@@H](NC(C)=O)[C@@H](C)CC)C(=O)N[C@@H](C(C)C)C(=O)N[C@@H](Cc2cn(C)c3ccccc23)C(=O)N[C@@H](CCC(N)=O)C(=O)N[C@@H](CC(=O)O)C(=O)N[C@@H](Cc2c[nH]c3ccccc23)C(=O)N(C)CC(=O)N[C@@H](C)C(=O)N[C@@H](Cc2c[nH]cn2)C(=O)N[C@@H](CCCNC(=N)N)C(=O)N1)C(N)=O [Peptide 17, Ac−Ic[CV(^1−MeW)QDW(^N−MeG)AHRC]I-NH2]	2.2
CC[C@H](C)[C@H](NC(C)=O)C(=O)N[C@H]1CSSC[C@@H](C(=O)N(C)[C@H](C(N)=O)[C@@H](C)CC)NC(=O)[C@H](CCCNC(=N)N)NC(=O)[C@H](Cc2c[nH]cn2)NC(=O)[C@H](C)NC(=O)CN(C)C(=O)[C@H](Cc2c[nH]c3ccccc23)NC(=O)[C@H](CC(=O)O)NC(=O)[C@H](CCC(N)=O)NC(=O)[C@H](Cc2cn(C)c3ccccc23)NC(=O)[C@H](C(C)C)NC1=O [Peptide 21]	3.3
CC[C@H](C)[C@H](NC(C)=O)C(=O)N[C@H]1CSSC[C@@H](C(=O)N[C@@H](CC(C)C)C(N)=O)NC(=O)[C@H](CCCNC(=N)N)NC(=O)[C@H](Cc2c[nH]cn2)NC(=O)[C@H](C)NC(=O)CN(C)C(=O)[C@H](Cc2c[nH]c3ccccc23)NC(=O)[C@H](CC(=O)O)NC(=O)[C@H](CCC(N)=O)NC(=O)[C@H](Cc2cn(C)c3ccccc23)NC(=O)[C@H](C(C)C)NC1=O [Peptide 18, Ac−Ic[CV(^1−MeW)QDW(^N−MeG)AHRC]L-NH2] (Ac-ICV[Trp(1-Me)]QDW[Sar]AHRCL-NH2; disulfide 2-12)	1.9
CCCC[C@H](NC(=O)[C@@H]1CSSC[C@H](NC(=O)[C@@H](NC(C)=O)[C@@H](C)CC)C(=O)N[C@@H](C(C)C)C(=O)N[C@@H](Cc2cn(C)c3ccccc23)C(=O)N[C@@H](CCC(N)=O)C(=O)N[C@@H](CC(=O)O)C(=O)N[C@@H](Cc2c[nH]c3ccccc23)C(=O)N(C)CC(=O)N[C@@H](C)C(=O)N[C@@H](Cc2c[nH]cn2)C(=O)N[C@@H](CCCNC(=N)N)C(=O)N1)C(N)=O [Peptide 19] (Ac-ICV[Trp(1-Me)]QDW[Sar]AHRC[Nle]-NH2; disulfide 2-12)	1.9
